# method-notes: Ratio of drug uptake in Wistar rat brain to Wistar rat striatum after 30 mins
# cond: in vivo, 0.5 h
readout-kind: Ratio

a = CCN(CC)C(=O)C1Sc2ccccc2-c2c1c1ccc(OC)cc1n2CCF (racemic)
b = CCN(CC)C(=O)C1c2c(n(CCF)c3ccccc23)-c2ccccc2S1(=O)=O (racemic)
Given the listed items, does a or b have the lesser reported Ratio? Answer by stating the label of the chosen item.
b
(b: 2.13, a: 3.5)

A = CCN(CC)C(=O)C1Sc2ccccc2-c2c1c1cc(F)ccc1n2CCF (racemic)
B = CCOc1ccc2c(c1)c1c(n2CCF)-c2ccccc2SC1C(=O)N(CC)CC (racemic)
Identify the entry with the smaller Ratio: A or B . Provide the label of your selected option as the answer.
A

###

# method-notes: Octanol-water partition coefficient, log P of the compound by reversed phase liquid chromatography
# Type: physicochemical
readout-kind: logP

{"compound": "CCN(CC)C(=O)C1Sc2ccccc2-c2c1c1cc(C)ccc1n2CCF (racemic)", "logP": 3.96}
{"compound": "CCN(CC)C(=O)C1Sc2ccccc2-c2c1c1ccc(OC)cc1n2CCF (racemic)", "logP": 3.82}
{"compound": "CCN(CC)C(=O)C1Sc2ccccc2-c2c1c1cc(F)ccc1n2CCF (racemic)", "logP": 3.85}
{"compound": "CCN(CC)C(=O)C1(C)c2c(n(CCF)c3ccccc23)-c2ccccc2S1(=O)=O (racemic)", "logP": 3.1}
{"compound": "CCN(CC)C(=O)C1Sc2ccccc2-c2c1c1cc(OC)ccc1n2CCF (racemic)", "logP": 3.77}
{"compound": "CCN(CC)C(=O)C1Sc2ccccc2-c2c1c1cc(OC(F)(F)F)ccc1n2CCF (racemic)", "logP": 4.03}
{"compound": "CCN(CC)C(=O)C1Sc2ccc(OC)cc2-c2c1c1ccccc1n2CCF (racemic)", "logP": 3.65}
{"compound": "CCN(CC)C(=O)C1Sc2cc(OC)ccc2-c2c1c1ccccc1n2CCF (racemic)", "logP": 3.91}
{"compound": "CCN(CC)C(=O)C1Sc2ccccc2-c2c1c1ccccc1n2CCF (racemic)", "logP": 3.76}
{"compound": "CCOc1ccc2c(c1)c1c(n2CCF)-c2ccccc2SC1C(=O)N(CC)CC (racemic)", "logP": 3.88}
{"compound": "CCN(CC)C(=O)C1Sc2c(F)cccc2-c2c1c1ccccc1n2CCF (racemic)", "logP": 3.79}
{"compound": "CCN(CC)C(=O)C1Sc2ccccc2-c2c1c1cc(O)ccc1n2CCF (racemic)", "logP": 3.19}
{"compound": "CCN(CC)C(=O)C1Sc2cc(F)ccc2-c2c1c1ccccc1n2CCF (racemic)", "logP": 3.87}
{"compound": "CCN(CC)C(=O)C1Sc2ccccc2-c2c1c1cc(Br)ccc1n2CCF (racemic)", "logP": 4.23}
{"compound": "CCN(CC)C(=O)C1Sc2ccccc2-c2c1c1cc(C#N)ccc1n2CCF (racemic)", "logP": 3.6}
{"compound": "CCN(CC)C(=O)C1Cc2ccccc2-c2c1c1ccccc1n2CCF (racemic)", "logP": 3.69}
{"compound": "CCN(CC)C(=O)C1Sc2cccc(OC)c2-c2c1c1ccccc1n2CCF (racemic)", "logP": 3.67}
{"compound": "CCN(CC)C(=O)C1Sc2ccccc2-c2c1c1cc(Cl)ccc1n2CCF (racemic)", "logP": 4.17}
{"compound": "CCN(CC)C(=O)C1Sc2cc(NC(C)=O)ccc2-c2c1c1ccccc1n2CCF (racemic)", "logP": 3.15}
